# credit: patent US20210347873A1

Experimental Target: mouse BLyS protein (mouse, UniProt Q9WU72 69-309)
Sequence (Q9WU72 69-309): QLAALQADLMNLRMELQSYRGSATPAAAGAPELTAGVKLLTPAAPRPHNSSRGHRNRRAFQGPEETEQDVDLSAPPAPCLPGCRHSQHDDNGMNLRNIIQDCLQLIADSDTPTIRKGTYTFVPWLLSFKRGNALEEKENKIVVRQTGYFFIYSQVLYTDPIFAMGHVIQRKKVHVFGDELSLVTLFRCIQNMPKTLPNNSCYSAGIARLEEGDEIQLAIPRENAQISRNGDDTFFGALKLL
Assay Info: cell-based or functional assay
Listed here: items and their measured mouse B lymphocyte proliferation (OD450 nm), antibody 0.8 nM.
State the answer as a number, implicitly in OD450 nm.

89A2G5E7 (antibody, V domains shown, Mouse hybridoma monoclonal antibody purified on Protein G) VH: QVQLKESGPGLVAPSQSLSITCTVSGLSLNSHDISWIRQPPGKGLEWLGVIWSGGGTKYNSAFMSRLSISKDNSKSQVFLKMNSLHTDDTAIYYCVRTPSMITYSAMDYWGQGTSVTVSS VL: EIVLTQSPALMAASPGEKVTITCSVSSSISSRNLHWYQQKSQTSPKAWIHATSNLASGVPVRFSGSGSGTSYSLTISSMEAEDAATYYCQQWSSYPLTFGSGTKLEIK: 2640

// next item, mouse B lymphocyte proliferation (OD450 nm), antibody 0.8 nM requested
Quick note, mouse B lymphocyte proliferation (OD450 nm), antibody 0.8 nM for L9G7 (antibody, V domains shown, From a human naive scFv phage library; also called human BLyS antibody L9G7) VH: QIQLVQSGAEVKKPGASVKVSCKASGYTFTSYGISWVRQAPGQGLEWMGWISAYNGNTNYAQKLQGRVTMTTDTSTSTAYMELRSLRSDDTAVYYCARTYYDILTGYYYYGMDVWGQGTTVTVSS VL: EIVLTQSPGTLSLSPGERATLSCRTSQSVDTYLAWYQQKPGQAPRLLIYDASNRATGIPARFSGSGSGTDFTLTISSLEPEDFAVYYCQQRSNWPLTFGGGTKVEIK landed at 640
